# Assay System: β1-receptors of the heart (Canis lupus familiaris, UniProt P79148)
# Construct: from tissue; host or cells: heart (left ventricle) of anaesthetised mongrel dogs, in vivo
# Sequence (P79148 whole entry): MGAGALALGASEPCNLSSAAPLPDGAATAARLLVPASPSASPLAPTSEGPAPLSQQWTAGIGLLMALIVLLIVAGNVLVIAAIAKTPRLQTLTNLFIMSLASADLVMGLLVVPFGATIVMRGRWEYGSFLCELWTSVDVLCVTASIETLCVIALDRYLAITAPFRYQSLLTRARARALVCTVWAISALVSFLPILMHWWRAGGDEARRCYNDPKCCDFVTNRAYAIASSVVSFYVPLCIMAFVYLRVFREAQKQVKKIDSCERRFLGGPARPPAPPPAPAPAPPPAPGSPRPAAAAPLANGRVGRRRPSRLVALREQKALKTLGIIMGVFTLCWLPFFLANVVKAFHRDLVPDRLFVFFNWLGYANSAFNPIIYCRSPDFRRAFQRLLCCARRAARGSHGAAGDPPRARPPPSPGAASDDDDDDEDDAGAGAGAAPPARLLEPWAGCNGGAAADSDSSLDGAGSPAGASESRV
# Test Method Notes: Inhibition of isoproterenol-induced increase in rate of pressure rise (Dp/dt max.) in left ventricle of anaesthetised dogs (β1-receptor inhibition)
# Type: in vivo, mongrel dogs
# Recorded Conditions: dog, iv; read-out: β1-receptor inhibition ED 50
Value Type: ED50 (mg/kg)

>>> value_reported("Cc1ncc(C(O)CC(C)NCC(O)COc2ccc(NC(=O)NC(C)C)cc2)c(C)n1 (centres unmarked)")
0.022
>>> value_reported("CCNC(=O)Nc1ccc(OCC(O)CNC(C)CC(O)c2cccnc2)cc1 (centres unmarked)")
0.013
>>> value_reported("CCOCc1ccc(OCC(O)CNC(C)CC(O)c2cnc(C)nc2C)cc1 (centres unmarked)")
0.019
>>> value_reported("CCCOCCOc1ccc(OCC(O)CNC(C)CC(O)c2ccc(C)nc2)cc1 (centres unmarked)")
0.035
>>> value_reported("CC(CC(O)c1cccnc1)NCC(O)COc1ccc(NC(=O)NC2CCCCC2)cc1 (centres unmarked)")
0.003

----------
# Assay System: β1-receptors of the heart (Canis lupus familiaris, UniProt P79148)
# Construct: from tissue; host or cells: heart (left ventricle) of anaesthetised mongrel dogs, in vivo
# Test Method Notes: Inhibition of isoproterenol-induced increase in rate of pressure rise (Dp/dt max.) in left ventricle of anaesthetised dogs (β1-receptor inhibition)
# Format: in vivo, mongrel dogs
# Recorded Conditions: relative ED 50; dogs; lower = more active
Mark Criterion met for reported Relative β1-receptor inhibition (reference substance = 100) of 5 or greater; mark Criterion not met for anything smaller.

>>> discrete_label("CCNC(=O)Nc1ccc(OCC(O)CNC(C)CC(O)c2cccnc2)cc1 (centres unmarked)")
"Criterion met"
>>> discrete_label("Cc1ncc(C(O)CC(C)NCC(O)COc2ccc(NC(=O)NC3CCCCC3)cc2)c(C)n1 (centres unmarked)")
"Criterion not met"
>>> discrete_label("Cc1ccc(C(O)CC(C)NCC(O)COc2ccc(NC(=O)NC3CCCCC3)cc2)cn1 (centres unmarked)")
"Criterion not met"
>>> discrete_label("CCOCc1ccc(OCC(O)CNC(C)CC(O)c2cccnc2)cc1 (centres unmarked)")
"Criterion not met"
>>> discrete_label("CCOCCOc1ccc(OCC(O)CNC(C)CC(O)c2cccnc2)cc1 (centres unmarked)")
"Criterion not met"
>>> discrete_label("CCOCc1ccc(OCC(O)CNC(C)CC(O)c2cnc(C)nc2C)cc1 (centres unmarked)")
"Criterion met"
>>> discrete_label("CCCOCCOc1ccc(OCC(O)CNC(C)CC(O)c2ccc(C)nc2)cc1 (centres unmarked)")
"Criterion met"
>>> discrete_label("Cc1ncc(C(O)CC(C)NCC(O)COc2ccc(NC(=O)NC(C)C)cc2)c(C)n1 (centres unmarked)")
"Criterion met"

----------
Below is a list of entries, each paired with its recorded log10(ED50) value.
# Assay System: β1-receptors of the heart (Canis lupus familiaris)
# Construct: from tissue; host or cells: heart (left ventricle) of anaesthetised mongrel dogs, in vivo
# Test Method Notes: Inhibition of isoproterenol-induced increase in rate of pressure rise (Dp/dt max.) in left ventricle of anaesthetised dogs (β1-receptor inhibition)
# Type: in vivo, mongrel dogs
# Recorded Conditions: dog, iv; read-out: β1-receptor inhibition ED 50
Value Type: log10(ED50) (log10 of the value in mg/kg)

>>> value_reported("C=CCNC(=O)Nc1ccc(OCC(O)CNC(C)CC(O)c2cnc(C)nc2C)cc1 (centres unmarked)")
-1.72
>>> value_reported("Cc1ccc(C(O)CC(C)NCC(O)COc2ccc(NC(=O)NC3CCCCC3)cc2)cn1 (centres unmarked)")
-2.22
>>> value_reported("COCCCCOc1ccc(OCC(O)CNC(C)CC(O)c2cnc(C)nc2C)cc1 (centres unmarked)")
-1.05
>>> value_reported("Cc1ccc(C(O)CC(C)NCC(O)COc2ccc(OCCO)cc2)cn1 (centres unmarked)")
-1.14
>>> value_reported("CCOCc1ccc(OCC(O)CNC(C)CC(O)c2cccnc2)cc1 (centres unmarked)")
-2.00
>>> value_reported("CCOCCOc1ccc(OCC(O)CNC(C)CC(O)c2cccnc2)cc1 (centres unmarked)")
-2.05
>>> value_reported("Cc1ncc(C(O)CC(C)NCC(O)COc2ccc(NC(=O)NC3CCCCC3)cc2)c(C)n1 (centres unmarked)")
-1.96
>>> value_reported("CCNC(=O)Nc1ccc(OCC(O)CNC(C)CC(O)c2cnc(C)nc2C)cc1 (centres unmarked)")
-1.03
